The reported measurements were obtained from a flash point compilation (Sun et al. 2020).

Listed here: items and their measured flash point.
outcome-measure: flash point

smiles-entry | reported-value
C=CC[Si](C)(C)N(C(C)C)C(C)C | 62.00 °C
CO[Si](CCCOC(C)=O)(OC)OC | 93.00 °C
CC(=O)OCCC[Si](C)(Cl)Cl | 85.00 °C
CC(=O)OCC[Si](Cl)(Cl)Cl | 82.00 °C
C[SiH](C)Cc1ccccc1 | 65.00 °C
C[Si](C)(C)CNCc1ccccc1 | 116.00 °C
CC(=O)OC[Si](C)(C)C | 20.00 °C
CCO[Si](C)(C)CCCN | 73.00 °C
CO[Si](C)(CCCNCCN)OC | 90.00 °C

###

The threshold is inclusive: flash point of exactly 40 °C counts as fulfilled; values below receive not fulfilled.

compound | label-value
CSSC [(methyldisulfanyl)methane] | not fulfilled
CCOC(=O)CCC(=O)OCC [diethyl butanedioate] | fulfilled
C1=CCC=C1 [InChI=1S/C5H6/c1-2-4-5-3-1/h1-4H,5H2] | not fulfilled
C1CCCCCC1 [cycloheptane] | not fulfilled
CCCCCCC(C)O (stereo unspecified) [octan-2-ol] | fulfilled
COCCOCCOCCOC [1-methoxy-2-[2-(2-methoxyethoxy)ethoxy]ethane] | fulfilled
CC(C)Nc1ccccc1 [N-propan-2-ylaniline] | fulfilled
CNC(=O)NC [1,3-dimethylurea] | fulfilled
Cc1ccccc1OP(=O)(Oc1ccccc1C)Oc1ccccc1C [tris(2-methylphenyl) phosphate] | fulfilled
NCCCCCCN [hexane-1,6-diamine] | fulfilled

###

Listed here: items and their measured flash point.
outcome-measure: flash point (°C)

molecule | outcome-measure | units-text | reported-value
C=C(C)C1CC=C(C)CC1 (stereo not given) | flash point | °C | 46.00
Cc1ccccc1CBr | flash point | °C | 82.00
O=P(OC(CCl)CCl)(OC(CCl)CCl)OC(CCl)CCl [tris(1,3-dichloropropan-2-yl) phosphate] | flash point | °C | 252.00
CC(Cl)(Cl)[N+](=O)[O-] | flash point | °C | 76.00
Oc1ccccc1O | flash point | °C | 127.00

###

Listed here: items and their measured flash point.

compound | flash point (°C)
C1CCNCC1 | 16.00
Cc1ccccc1O | 81.00
CC12CCC(CC1=O)C2(C)C (stereo not drawn) | 66.00
CCCCc1ccccc1 | 71.00
CCCCCC | -22.00
O=C(O)CCCCC(=O)O | 191.00
CN(C)C=O [Dimethylformamide] | 58.00
CCCCCCCCOC(=O)c1ccccc1C(=O)OCCCCCCCC [Di-n-Octyl phthalate] | 219.00
ClCc1ccccc1 [Benzyl chloride] | 67.00
c1ccccc1 | -11.00
CC(=O)OCCC(C)C [iso-Amyl acetate] | 23.00
CCCC(=O)O | 66.00
C=C(C)OC(C)=O [iso-Propenyl acetate] | 16.00

###

Consider the cut-off 60 °C. If the recorded flash point is strictly smaller, the label is label 1; if not, the label is label 0.

compound | label-value
CCCS | label 1
CCCCBr | label 1
C=CC#N | label 1
C=COCCC | label 1
N#CC1CC1 | label 1
CCC(C)CCC(=O)O (configuration not stated) | label 0
CCCCCCC(C)=O | label 1
CCCCC(C)(CC)CC | label 1
COC(=O)OC [dimethylcarbonate] | label 1
OC1CCCCCCC1 | label 0
C=COCC(C)C | label 1
CC(C)(C)Cc1ccccc1 | label 1
CCCCC1CCCCC1 | label 1
C[C@H]1CC[C@H](O)CC1 [trans-4-methylcyclohexanol] | label 0
CCCCCCCI | label 0
CCCC(Br)CC (configuration not stated) | label 1
COCC(C)O (configuration not stated) | label 1
CC(C)CC(C)(C)C | label 1
CCC(=O)Cc1ccccc1 | label 0
CC1OCCO1 | label 1
CCCCCCC(=O)CCC | label 0
CCCC(C)C | label 1
CCCOC(=O)CCC [propylbutanoate] | label 1
CCCCCCCCCS | label 0
CC(C)(C)C1CCCCC1=O (configuration not stated) | label 0
CCCCCCCCCOC(C)=O [nonylacetate] | label 0

###

molecule | flash point [°C]
SC1CCCC1 | 25
C=CCC(C)CC (stereo unspecified) | -15
CC(C)(C)OC=O [tert-butylformate] | -9
CCC#CCC | -14
CCCCNC(C)=O [N-butylacetamide] | 115
CCCC(C)C(C)CC (stereo unspecified) | 15
COC1CCCCC1 | 21
CC1CC(C)(C)CC1=O (stereo unspecified) | 43
CCC(C)C(C)(C)C (stereo unspecified) | -3
Cc1cccc(Br)c1 | 75
CCCCOC(=O)CCC [butylbutanoate] | 49
CCC(C)CCCC(C)C (stereo unspecified) | 34
CCC(=O)OCCc1ccccc1 [2-phenylethylpropionate] | 113
CCc1ccccc1CC | 55
Clc1ccccn1 | 64
CCC(C)(C)C(C)C | 5
CCI | -5
CCCCCC(C)O (stereo unspecified) | 59
CCCCC(C)CCCC | 37
CCCCCCC=O | 40
C=C(C)CC(C)(C)C | -4
CCCCc1ccccc1 | 50
C=CCCl | -28
OCCOCCO | 124
CCC(CC)C(C)(C)C | 13
C=CC1(C)CCC(=O)O1 (stereo unspecified) | 75

###

Listed here: items and their measured flash point.

molecule | flash point (°C)
C[Si](C)(C)O[Si](C)(C)C | -3.00
C[Si](C)(Cl)O[Si](C)(C)Cl | 15.00
CC[SiH3] | -60.00
C[Si](C)(C)I | 15.00
CCO[Si](CC)(CC)OCC | 43.00
CO[Si](CCCOCC1CO1)(OC)OC (stereo not given) | 110.00
CCCC[Si](C)(Cl)Cl | 30.00
CO[Si](C)(CCCCl)OC | 45.00
C[Si](C)(C)N1CCOCC1 | 27.00
Cl[SiH2]Cl | -37.00
C=CC[Si](C)(C)Cl | 5.00
C=CC[Si](Cl)(Cl)Cl | 31.00
C[Si](C)(C)S[Si](C)(C)C | 26.00
CO[Si](CCC1CCC2OC2C1)(OC)OC (stereo not given) | 146.00
c1ccc([SiH](c2ccccc2)c2ccccc2)cc1 | 143.20
C[Si](C)(Cl)CCl | 22.00
CO[Si](OC)(OC)c1ccccc1 | 85.00
COCC(C)O[Si](C)(C)C (stereo not given) | 20.00
CCC[Si](Cl)(Cl)Cl | 37.00
CCCCCCCCCCCC[Si](C)(Cl)Cl | 143.00
CC(CCl)C[Si](C)(Cl)Cl (stereo not given) | 90.00
CO[Si](C)(C)C | -30.00
Clc1ccc([Si](Cl)(Cl)Cl)cc1 | 123.90
C[Si](C)(C)OC(=O)C(F)(F)F [Trimethylsilyltrifluoroacetate] | 0.00
CCC[SiH](CCC)CCC | 43.00
CCCCCCC[Si](Cl)(Cl)Cl | 64.00
CC#C[Si](C)(C)C | -3.00
CCN(CC)[Si](C)(C)C | 10.00
C[Si](C)(C)c1ccccc1 | 40.00
CC(C)N(C(C)C)[Si](C)(C)C | 28.00
c1ccc([SiH2]c2ccccc2)cc1 | 98.00
Cl[Si](Cl)(Cl)C1CCCC1 | 77.00
CC[Si](CC)(CC)O[Si](CC)(CC)CC | 76.00
C=CC[Si](OC)(OC)OC | 46.00
C=C(C)C(=O)OCCC[Si](OC)(OC)OC | 92.00
C[Si](C)(C)OC1=CCCC1 | 38.00
CC[Si](Cl)(CC)CC | 30.00
C=C[Si](C)(C)N[Si](C)(C)C=C | 34.00
ClCCC[Si](Cl)(Cl)Cl | 84.00
CCCCCC[Si](Cl)(Cl)Cl | 85.00

###

Listed here: items and their measured flash point.

smiles-entry | flash point, °C
CCC[CH2][Sn]([Cl])([CH2]CCC)[CH2]CCC | 120.00
C[N](C)[Sn]([CH3])([CH3])[CH3] | 1.00
CCC[CH2][Sn]([CH2]CCC)([O]C(C)=O)[O]C(C)=O | 143.00
CCC[CH2][Sn]([CH2]CCC)([O]C)[O]C | 110.00
C[C](C)(C)[Sn]([Cl])([Cl])[C](C)(C)C | 113.00
CCC[CH2][Sn]([CH2]CCC)([CH2]CCC)[CH2]CCC | 107.00
CCCC[O][Sn]([CH2]CCC)([CH2]CCC)[O]CCCC | 116.00
CCC[CH2][Sn]([CH2]CCC)([CH2]CCC)[C](C)(C)C | 102.00
CCC[CH2][Sn]([CH2]CCC)([CH2]CCC)[c]1ccccc1 | 107.00
CCCCCCC[CH2][Sn]([CH2]CCCCCCC)([CH2]CCCCCCC)[CH2]CCCCCCC | 94.00
